# System: Escherichia coli TOP10
# ASSAY COMMENT: shrunken log2 fold change of peptide-encoding DNA abundance (4.5 h post-induction vs induction); higher = less antimicrobial activity (less host growth inhibition)
# ASSAY SETUP: time post-induction: 4.5 h; library: site-saturation at positions 5, 18, 19, 20
Would you mind labelling by shrunken log2 fold change? At or over 0.05 is Satisfied, under is Not satisfied.

Determine whether this sequence has shrunken log2 fold change no lower than 0.05: `RRIRWRPPRLPRPRPRPWHEPRP` Satisfied

Determine whether this sequence has shrunken log2 fold change no lower than 0.05: `RRIRYRPPRLPRPRPRPDRPPRP` Not satisfied

Determine whether this sequence has shrunken log2 fold change no lower than 0.05: `RRIRERPPRLPRPRPRPGMKPRP` Satisfied

Determine whether this sequence has shrunken log2 fold change no lower than 0.05: `RRIRFRPPRLPRPRPRPSNTPRP` Not satisfied

Determine whether this sequence has shrunken log2 fold change no lower than 0.05: `RRIRWRPPRLPRPRPRPVSHPRP` Not satisfied

Determine whether this sequence has shrunken log2 fold change no lower than 0.05: `RRIRLRPPRLPRPRPRPCCHPRP` Not satisfied

Determine whether this sequence has shrunken log2 fold change no lower than 0.05: `RRIRRRPPRLPRPRPRPFLYPRP` Satisfied

Determine whether this sequence has shrunken log2 fold change no lower than 0.05: `RRIRMRPPRLPRPRPRPLSAPRP` Satisfied

====

# Tested on: Escherichia coli TOP10;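 also: peptides expressed intracellularly from a pBAD plasmid library in pooled LB shake-flask culture, induced with 0.3% L-arabinose, DNA abundance read by NGS, three biological replicates, DESeq2 with apeglm shrinkage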
# ASSAY COMMENT: shrunken log2 fold change of peptide-encoding DNA abundance (4.5 h post-induction vs induction); higher = less antimicrobial activity (less host growth inhibition)
# ASSAY SETUP: time post-induction: 4.5 h; library: site-saturation at positions 5, 18, 19, 20
Would you mind labelling by shrunken log2 fold change? At or over 0.02 is label 1, under is label 0.

Determine whether this sequence has shrunken log2 fold change no lower than 0.02: `RRIRDRPPRLPRPRPRPRAFPRP` label 0

Determine whether this sequence has shrunken log2 fold change no lower than 0.02: `RRIRPRPPRLPRPRPRPEWNPRP` label 1

Determine whether this sequence has shrunken log2 fold change no lower than 0.02: `RRIRRRPPRLPRPRPRPKPPPRP` label 1

Determine whether this sequence has shrunken log2 fold change no lower than 0.02: `RRIRTRPPRLPRPRPRPAMYPRP` label 0

Determine whether this sequence has shrunken log2 fold change no lower than 0.02: `RRIRMRPPRLPRPRPRPWSHPRP` label 0

Determine whether this sequence has shrunken log2 fold change no lower than 0.02: `RRIRGRPPRLPRPRPRPGGFPRP` label 1

Determine whether this sequence has shrunken log2 fold change no lower than 0.02: `RRIRGRPPRLPRPRPRPWLYPRP` label 1

Determine whether this sequence has shrunken log2 fold change no lower than 0.02: `RRIRNRPPRLPRPRPRPKANPRP` label 1

Determine whether this sequence has shrunken log2 fold change no lower than 0.02: `RRIRGRPPRLPRPRPRPIETPRP` label 1

Determine whether this sequence has shrunken log2 fold change no lower than 0.02: `RRIRMRPPRLPRPRPRPWCCPRP` label 0

Determine whether this sequence has shrunken log2 fold change no lower than 0.02: `RRIRSRPPRLPRPRPRPAGGPRP` label 1

Determine whether this sequence has shrunken log2 fold change no lower than 0.02: `RRIRGRPPRLPRPRPRPCGMPRP` label 1

Determine whether this sequence has shrunken log2 fold change no lower than 0.02: `RRIRKRPPRLPRPRPRPWGRPRP` label 1

Determine whether this sequence has shrunken log2 fold change no lower than 0.02: `RRIRCRPPRLPRPRPRPWTLPRP` label 0

Determine whether this sequence has shrunken log2 fold change no lower than 0.02: `RRIRRRPPRLPRPRPRPMYMPRP` label 0

Determine whether this sequence has shrunken log2 fold change no lower than 0.02: `RRIRMRPPRLPRPRPRPAMDPRP` label 1

Determine whether this sequence has shrunken log2 fold change no lower than 0.02: `RRIRLRPPRLPRPRPRPESQPRP` label 0

Determine whether this sequence has shrunken log2 fold change no lower than 0.02: `RRIRWRPPRLPRPRPRPVILPRP` label 0

Determine whether this sequence has shrunken log2 fold change no lower than 0.02: `RRIRLRPPRLPRPRPRPWKIPRP` label 1

Determine whether this sequence has shrunken log2 fold change no lower than 0.02: `RRIRKRPPRLPRPRPRPPDAPRP` label 1

Determine whether this sequence has shrunken log2 fold change no lower than 0.02: `RRIRARPPRLPRPRPRPFPCPRP` label 1

Determine whether this sequence has shrunken log2 fold change no lower than 0.02: `RRIRIRPPRLPRPRPRPFGHPRP` label 0

Determine whether this sequence has shrunken log2 fold change no lower than 0.02: `RRIRTRPPRLPRPRPRPVNRPRP` label 0

Determine whether this sequence has shrunken log2 fold change no lower than 0.02: `RRIRNRPPRLPRPRPRPKEKPRP` label 0

Determine whether this sequence has shrunken log2 fold change no lower than 0.02: `RRIRLRPPRLPRPRPRPPWKPRP` label 1

Determine whether this sequence has shrunken log2 fold change no lower than 0.02: `RRIRPRPPRLPRPRPRPRCKPRP` label 1

Determine whether this sequence has shrunken log2 fold change no lower than 0.02: `RRIRNRPPRLPRPRPRPHAQPRP` label 0

Determine whether this sequence has shrunken log2 fold change no lower than 0.02: `RRIRVRPPRLPRPRPRPFWCPRP` label 0

Determine whether this sequence has shrunken log2 fold change no lower than 0.02: `RRIRNRPPRLPRPRPRPPVAPRP` label 1

Determine whether this sequence has shrunken log2 fold change no lower than 0.02: `RRIRNRPPRLPRPRPRPITDPRP` label 0

Determine whether this sequence has shrunken log2 fold change no lower than 0.02: `RRIRDRPPRLPRPRPRPMMHPRP` label 1

Determine whether this sequence has shrunken log2 fold change no lower than 0.02: `RRIRPRPPRLPRPRPRPNGQPRP` label 1
